Reported IC50 values for a set of molecules
Experimental Target: TNFα (Homo sapiens, UniProt P01375)
Sequence (P01375 77-233 limits assumed): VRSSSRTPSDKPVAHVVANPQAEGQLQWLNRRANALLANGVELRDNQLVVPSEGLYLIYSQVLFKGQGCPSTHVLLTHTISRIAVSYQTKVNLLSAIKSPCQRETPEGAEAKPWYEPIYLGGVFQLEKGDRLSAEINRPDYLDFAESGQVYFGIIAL
Procedure Details: TNF-Induced HEK-Blue Assay
Type: cell-based
Stated Conditions: HEK-Blue-CD40L cells, NF-kB-driven secreted alkaline phosphatase reporter; TNFα 0.5 ng/ml; 18 h; read-out: TNF induced HEK-Blue assay IC50 value
Positions of bridges follow the written chain, without caps; N, C: chain ends. Non-standard residues stand in square brackets, D forms with d. Residues, ends and D or L forms follow the SMILES beside them. Bip(4'-NHAc) = CC(=O)Nc1ccc(-c2ccc(C[C@H](N)C(=O)O)cc2)cc1; Bip = N[C@@H](Cc1ccc(-c2ccccc2)cc1)C(=O)O; Val(3-OH) = CC(C)(O)[C@H](N)C(=O)O; 2Pal = N[C@@H](Cc1ccccn1)C(=O)O; 2Thi = N[C@@H](Cc1cccs1)C(=O)O; Tle = CC(C)(C)[C@H](N)C(=O)O; Sar = CNCC(=O)O

Suppose we examine the molecule CC(C)C[C@@H]1NC(=O)[C@H](CCCNC(=N)N)NC(=O)[C@H](C(C)C)NC(=O)[C@H](Cc2ccccn2)NC(=O)[C@H](C(C)C)NC(=O)[C@H](CCCNC(=N)N)NC(=O)[C@H](CC(=O)O)NC(=O)[C@@H]2CCCN2C(=O)CN(C)C(=O)[C@H](Cc2ccc(-c3ccccc3)cc2)NC(=O)[C@H](Cc2ccc(-c3ccccc3)cc2)NC(=O)[C@H](C(C)(C)O)NC(=O)CSC[C@@H](C(=O)NCC(N)=O)NC1=O [Example 108] ({CH2CO}-[Val(3-OH)][Bip][Bip][Sar]PDRV[2Pal]VRLCG-NH2; thioether N-13) ; what IC50 value has been reported?
50 to 200 nM

Others:
Suppose we examine the molecule CC(=O)Nc1ccc(-c2ccc(C[C@@H]3NC(=O)[C@H](Cc4ccc(-c5ccccc5)cc4)NC(=O)[C@H](C(C)(C)C)NC(=O)CSC[C@@H](C(=O)NCC(N)=O)NC(=O)[C@H](CC(C)C)NC(=O)[C@H](Cc4cccs4)NC(=O)[C@H](C(C)C)NC(=O)[C@@H]4CCCN4C(=O)[C@H](C(C)C)NC(=O)[C@@H](CCCNC(=N)N)NC(=O)[C@H](CC(=O)O)NC(=O)[C@H](Cc4ccccn4)NC(=O)CN(C)C3=O)cc2)cc1 [Example 605] ({CH2CO}-[Tle][Bip][Bip(4'-NHAc)][Sar][2Pal]D[dR]VPV[2Thi]LCG-NH2; thioether N-13) ; what IC50 value has been reported?
200 to 2000 nM

###

Experimental Target: TNFα (Homo sapiens, UniProt P01375)
Procedure Details: TNF-Induced HEK-Blue Assay
Type: cell-based
Stated Conditions: HEK-Blue-CD40L cells, NF-kB-driven secreted alkaline phosphatase reporter; TNFα 0.5 ng/ml; 18 h; read-out: TNF induced HEK-Blue assay IC50 value
Starred links: 1 amine or outer side, 2 acyl side, 3 side chain; linkers in the order of their positions; H or OH if unused. Positions of bridges follow the written chain, without caps; N, C: chain ends. Non-standard residues stand in square brackets, D forms with d. Residues, ends and D or L forms follow the SMILES beside them. X64 = O=C(O)CCC(=O)Nc1ccc(-c2ccc(C[C@H](N[*:1])C(=O)[*:2])cc2)cc1; Ala(morpholin-4-yl) = N[C@@H](CN1CCOCC1)C(=O)O; Bip = N[C@@H](Cc1ccc(-c2ccccc2)cc1)C(=O)O; Hyp = O=C(O)[C@@H]1C[C@@H](O)CN1; Cha = N[C@@H](CC1CCCCC1)C(=O)O; Sar = CNCC(=O)O
Readout Kind: IC50

Suppose we examine the compound CC[C@H](C)[C@@H]1NC(=O)[C@@H](CCCNC(=N)N)NC(=O)[C@H](CC(=O)O)NC(=O)[C@H](Cc2cnc[nH]2)NC(=O)CN(C)C(=O)[C@H](Cc2ccc(-c3ccc(NC(=O)CCC(=O)O)cc3)cc2)NC(=O)[C@H](Cc2ccc(-c3ccccc3)cc2)NC(=O)[C@H](CC2CCCCC2)NC(=O)CSC[C@@H](C(=O)NCC(N)=O)NC(=O)[C@H](CC(C)C)NC(=O)[C@H](Cc2cnc[nH]2)NC(=O)[C@H](C(C)C)NC(=O)[C@@H]2CCCN2C1=O [Example 323] ({CH2CO}-[Cha][Bip][X64][Sar]HD[dR]IPVHLCG-NH2; thioether N-13) ; what IC50 value has been reported?
50 to 200 nM

Others:
Suppose we examine the compound CC(C)C[C@@H]1NC(=O)[C@H](CCCNC(=N)N)NC(=O)[C@H](C(C)C)NC(=O)[C@@H]2C[C@@H](O)CN2C(=O)[C@H](C(C)C)NC(=O)[C@H](CCCNC(=N)N)NC(=O)[C@H](CC(=O)O)NC(=O)[C@@H]2CCCN2C(=O)CN(C)C(=O)[C@H](Cc2ccc(-c3ccccc3)cc2)NC(=O)[C@H](Cc2ccc(-c3ccccc3)cc2)NC(=O)[C@H](CN2CCOCC2)NC(=O)CSC[C@@H](C(=O)NCC(N)=O)NC1=O [Example 70] ({CH2CO}-[Ala(morpholin-4-yl)][Bip][Bip][Sar]PDRV[Hyp]VRLCG-NH2; thioether N-13) ; what IC50 value has been reported?
200 to 2000 nM

###

Experimental Target: TNFα (Homo sapiens, UniProt P01375)
Procedure Details: TNF-Induced HEK-Blue Assay
Type: cell-based
Stated Conditions: HEK-Blue-CD40L cells, NF-kB-driven secreted alkaline phosphatase reporter; TNFα 0.5 ng/ml; 18 h; read-out: TNF induced HEK-Blue assay IC50 value
Positions of bridges follow the written chain, without caps; N, C: chain ends. Non-standard residues stand in square brackets, D forms with d. Residues, ends and D or L forms follow the SMILES beside them. Bip(4'-COOH) = N[C@@H](Cc1ccc(-c2ccc(C(=O)O)cc2)cc1)C(=O)O; Ala(morpholin-4-yl) = N[C@@H](CN1CCOCC1)C(=O)O; Bip = N[C@@H](Cc1ccc(-c2ccccc2)cc1)C(=O)O; Val(3-OH) = CC(C)(O)[C@H](N)C(=O)O; 2Pal = N[C@@H](Cc1ccccn1)C(=O)O; Hpra = C#CCC[C@H](N)C(=O)O; Nle = CCCC[C@H](N)C(=O)O; Aze = O=C(O)[C@@H]1CCN1; Abu = CC[C@H](N)C(=O)O; Sar = CNCC(=O)O
Readout Kind: IC50

Suppose we examine the compound CC(C)C[C@@H]1NC(=O)[C@H](Cc2ccc(O)cc2)NC(=O)[C@H](C(C)C)NC(=O)CNC(=O)[C@H](C(C)C)NC(=O)[C@@H](CCCNC(=N)N)NC(=O)[C@H](CC(=O)O)NC(=O)[C@H](Cc2ccc(O)cc2)NC(=O)CN(C)C(=O)[C@H](Cc2ccc(-c3ccccc3)cc2)NC(=O)[C@H](Cc2ccc(-c3ccccc3)cc2)NC(=O)[C@H](CN2CCOCC2)NC(=O)CSC[C@@H](C(=O)NCC(N)=O)NC1=O [Example 137] ({CH2CO}-[Ala(morpholin-4-yl)][Bip][Bip][Sar]YD[dR]VGVYLCG-NH2; thioether N-13) ; what IC50 value has been reported?
200 to 2000 nM

Suppose we examine the compound CCCC[C@@H]1NC(=O)[C@@H]2CCCN2C(=O)[C@H](C(C)C)NC(=O)[C@@H](CCCNC(=N)N)NC(=O)[C@H](CC(=O)O)NC(=O)[C@H](Cc2ccc(O)cc2)NC(=O)CN(C)C(=O)[C@H](Cc2ccc(-c3ccccc3)cc2)NC(=O)[C@H](Cc2ccc(-c3ccccc3)cc2)NC(=O)[C@H](CN2CCOCC2)NC(=O)CSC[C@@H](C(=O)NCC(N)=O)NC(=O)[C@H](CC(C)C)NC(=O)[C@H](Cc2ccc(O)cc2)NC1=O [Example 163] ({CH2CO}-[Ala(morpholin-4-yl)][Bip][Bip][Sar]YD[dR]VP[Nle]YLCG-NH2; thioether N-13) ; what IC50 value has been reported?
200 to 2000 nM

Suppose we examine the compound CC(C)C[C@@H]1NC(=O)[C@H](Cc2ccc(O)cc2)NC(=O)[C@H](C(C)C)NC(=O)[C@@H]2CCCN2C(=O)[C@H](C(C)C)NC(=O)[C@H](CCCNC(=N)N)NC(=O)[C@H](CC(=O)O)NC(=O)[C@H](Cc2ccc(O)cc2)NC(=O)CN(C)C(=O)[C@H](Cc2ccc(-c3ccccc3)cc2)NC(=O)[C@H](Cc2ccc(-c3ccccc3)cc2)NC(=O)[C@H](C(C)(C)O)NC(=O)CSC[C@@H](C(=O)NCC(N)=O)NC1=O [Example 50] ({CH2CO}-[Val(3-OH)][Bip][Bip][Sar]YDRVPVYLCG-NH2; thioether N-13) ; what IC50 value has been reported?
50 to 200 nM

Suppose we examine the compound CC(C)C[C@@H]1NC(=O)[C@H](Cc2ccc(O)cc2)NC(=O)[C@H](C(C)C)NC(=O)[C@@H]2CCCN2C(=O)[C@H](C(C)C)NC(=O)[C@@H](CCCNC(=N)N)NC(=O)[C@H](CC(=O)O)NC(=O)[C@H](Cc2ccccn2)NC(=O)CN(C)C(=O)[C@H](Cc2ccc(-c3ccccc3)cc2)NC(=O)[C@H](Cc2ccc(-c3ccccc3)cc2)NC(=O)[C@H](CN2CCOCC2)NC(=O)CSC[C@@H](C(=O)NCC(N)=O)NC1=O [Example 144] ({CH2CO}-[Ala(morpholin-4-yl)][Bip][Bip][Sar][2Pal]D[dR]VPVYLCG-NH2; thioether N-13) ; what IC50 value has been reported?
< 50 nM

Suppose we examine the compound C#CCC[C@@H]1NC(=O)[C@H](CCCNC(=N)N)NC(=O)[C@H](CC(=O)O)NC(=O)[C@@H]2CCCN2C(=O)CN(C)C(=O)[C@H](Cc2ccc(-c3ccccc3)cc2)NC(=O)[C@H](Cc2ccc(-c3ccccc3)cc2)NC(=O)[C@H](Cc2ccccc2)NC(=O)CSC[C@@H](C(=O)NCC(N)=O)NC(=O)[C@H](CC(C)C)NC(=O)[C@H](CCCNC(=N)N)NC(=O)[C@H](C(C)C)NC(=O)[C@@H]2CCCN2C1=O [Example 33] ({CH2CO}-F[Bip][Bip][Sar]PDR[Hpra]PVRLCG-NH2; thioether N-13) ; what IC50 value has been reported?
200 to 2000 nM

Suppose we examine the compound CC[C@@H]1NC(=O)[C@@H]2CCCN2C(=O)[C@H](C(C)C)NC(=O)[C@@H](CCCNC(=N)N)NC(=O)[C@H](CC(=O)O)NC(=O)[C@H](Cc2ccc(O)cc2)NC(=O)CN(C)C(=O)[C@H](Cc2ccc(-c3ccccc3)cc2)NC(=O)[C@H](Cc2ccc(-c3ccccc3)cc2)NC(=O)[C@H](CN2CCOCC2)NC(=O)CSC[C@@H](C(=O)NCC(N)=O)NC(=O)[C@H](CC(C)C)NC(=O)[C@H](Cc2ccc(O)cc2)NC1=O [Example 161] ({CH2CO}-[Ala(morpholin-4-yl)][Bip][Bip][Sar]YD[dR]VP[Abu]YLCG-NH2; thioether N-13) ; what IC50 value has been reported?
50 to 200 nM

Suppose we examine the compound CC(C)C[C@@H]1NC(=O)[C@H](Cc2ccc(O)cc2)NC(=O)[C@H](C(C)C)NC(=O)[C@@H]2CCN2C(=O)[C@H](C(C)C)NC(=O)[C@H](CCCNC(=N)N)NC(=O)[C@H](CC(=O)O)NC(=O)[C@H](Cc2ccc(O)cc2)NC(=O)CN(C)C(=O)[C@H](Cc2ccc(-c3ccccc3)cc2)NC(=O)[C@H](Cc2ccc(-c3ccccc3)cc2)NC(=O)[C@H](CN2CCOCC2)NC(=O)CSC[C@@H](C(=O)NCC(N)=O)NC1=O [Example 75] ({CH2CO}-[Ala(morpholin-4-yl)][Bip][Bip][Sar]YDRV[Aze]VYLCG-NH2; thioether N-13) ; what IC50 value has been reported?
200 to 2000 nM

Suppose we examine the compound CC(C)C[C@@H]1NC(=O)[C@H](Cc2ccc(O)cc2)NC(=O)[C@H](C(C)C)NC(=O)[C@@H]2CCCN2C(=O)[C@H](C(C)C)NC(=O)[C@H](CCCNC(=N)N)NC(=O)[C@H](CC(=O)O)NC(=O)[C@H](Cc2ccc(O)cc2)NC(=O)CN(C)C(=O)[C@H](Cc2ccc(-c3ccccc3)cc2)NC(=O)[C@H](Cc2ccc(-c3ccc(C(=O)O)cc3)cc2)NC(=O)[C@H](CN2CCOCC2)NC(=O)CSC[C@@H](C(=O)NCC(N)=O)NC1=O [Example 121] ({CH2CO}-[Ala(morpholin-4-yl)][Bip(4'-COOH)][Bip][Sar]YDRVPVYLCG-NH2; thioether N-13) ; what IC50 value has been reported?
200 to 2000 nM
